TARGET OF ASSAY: human SCF248 (stem cell factor 248 isoform) expressed on mouse SI/SI4 cells (human), P21583
Sequence (P21583 26-273): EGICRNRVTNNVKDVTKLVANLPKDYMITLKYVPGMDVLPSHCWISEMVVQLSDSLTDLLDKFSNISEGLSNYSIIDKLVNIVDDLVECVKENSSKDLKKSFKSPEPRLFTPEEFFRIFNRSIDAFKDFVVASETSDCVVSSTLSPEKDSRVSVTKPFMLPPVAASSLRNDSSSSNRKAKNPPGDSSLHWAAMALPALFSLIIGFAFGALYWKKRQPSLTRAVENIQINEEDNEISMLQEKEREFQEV
PROTOCOL TEXT: cell-based or functional assay
VALUE TYPE: CCL2 Expression as Percentage of Positive Control (%)
A number alone suffices; assume %.

{"BINDER": "D44P mutant expressed as full length IgG4 antibody (antibody, V domains shown, Full length IgG4) VH: QVQLVQSGAELKKPGSSVKISCKSSGYAFSSQWMNWVKQRPGQGLEWIGQIYPEDGDIHYNGKFKGKATLTADKSTSTAYMELSSLTSEDSAVYFCSSSNWVGSYWGQGTLVTVSS VL: DVVMTQSPLSLPVTLGQPASISCKSSQSLLEEDGNTYLNWLQQRPGQSPRRLIYLVDRLDSGVPDRFSGSGSGTDFTLKISRVEAEDVGVYYCWQGSHLPQTFGGGTKVEIK", "NUMERIC READOUT": 42.2}

Consider F54P mutant expressed as full length IgG4 antibody (antibody, V domains shown, Full length IgG4) VH: QVQLVQSGAELKKPGSSVKISCKSSGYAFSSQWMNWVKQRPGQGLEWIGQIYPEDGDTHMNGKFKTKATLTADKSTSTAYMELSSLTSEDSAVYFCSSSNWVGSYWGQGTLVTVSS VL: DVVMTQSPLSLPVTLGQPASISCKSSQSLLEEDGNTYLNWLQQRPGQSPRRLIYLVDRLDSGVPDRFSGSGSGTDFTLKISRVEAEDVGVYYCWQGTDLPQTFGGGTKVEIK . Its measured CCL2 Expression as Percentage of Positive Control is 55.7

Consider 5H10 VK3/VH1 humanized antibody of Table 1 (antibody, V domains shown) VH: QVQLVQSGAELKKPGSSVKISCKSSGYAFSSYWMNWVKQRPGQGLEWIGQIYPGDGDTHYNGKFKGKATLTADKSTSTAYMELSSLTSEDSAVYFCSSSNWVGSYWGQGTLVTVSS VL: DVVMTQSPLSLPVTLGQPASISCKSSQSLLESDGKTYLNWLQQRPGQSPRRLIYLVSRLDSGVPDRFSGSGSGTDFTLKISRVEAEDVGVYYCWQGTHLPQTFGGGTKVEIK . Its measured CCL2 Expression as Percentage of Positive Control is 37
